meta.source: PubChem BioAssay (NCI)

test system: PC-3 prostate; assay: NCI-60 one-dose screen, 48 h (100 = growth as untreated, 0 = no growth, -100 = all killed); conditions: 10 µM unless noted
This is part of a sample that, as a whole, favours compounds with a hit. Of some 83,000 tested, about 20% had one in any assay.
Label class 1 when growth is at or above 40%; otherwise label class 0.

Below are worked cases with known answers.
Compound	Category label
COc1ccc(/C=C/C(=O)/C=C/c2cc3ccc(Cl)cc3[nH]c2=O)cc1	class 1
COc1ccccc1OCC(=O)Nc1sc2c(c1C(N)=O)CCC2	class 1
CCCOC(=O)C1(O)CCCC1	class 1
Nc1nc(-c2cc3ccccc3o2)cc(=O)c(=O)[nH]1	class 1
O=C(NNC(=S)Nc1ccccc1)c1ccccn1	class 0
COc1cc(/C=C\c2cc(OC)c(OC)c(OC)c2)cc(N/C=C\C(=O)c2c[nH]c3ccccc23)c1OC	class 0
C=CCn1c(C)nc2ccc(Nc3nc(Nc4ccc(F)cc4)nc4ccccc34)cc21	class 1

Below: the item to evaluate.
Data request: Check this compound for growth at or above 40%: NC(CC(N)C(=O)O)C(=O)O (stereo not drawn)
Data returned: class 1
